# measured-target: AuroraA-TPX2 (Homo sapiens)
# Construct: 20 μL of AuroraA-TPX2 KD GST for a final volume of about 41 μL; GST
# Sequence (O14965 133-383 limits assumed): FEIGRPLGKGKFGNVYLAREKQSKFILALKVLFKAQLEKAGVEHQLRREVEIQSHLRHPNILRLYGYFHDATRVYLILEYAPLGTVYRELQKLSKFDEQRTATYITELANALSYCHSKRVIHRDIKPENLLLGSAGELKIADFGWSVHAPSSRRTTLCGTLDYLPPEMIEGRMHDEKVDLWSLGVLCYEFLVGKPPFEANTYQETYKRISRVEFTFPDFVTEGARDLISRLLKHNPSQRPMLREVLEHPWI
# Sequence (Q9ULW0 1-43 partner limits assumed): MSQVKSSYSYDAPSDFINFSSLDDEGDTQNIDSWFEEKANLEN
# test-details: AuroraA-TPX2 Homogeneous Time Resolved Fluorescent (HTRF) kinase assay
# Format: biochemical
# condition-details: average; read-out: AurA_IC50_IP (uM Avg)
compounds and their reported IC50
measure: IC50 (µM)

INSERT INTO assay_data (compound, result_units, readout_number) VALUES
  ('Clc1ccc(-c2nnc(Nc3ccc(Sc4ccnc5cccnc45)cc3)c3ccccc23)cc1 [Example 33]', 'µM', 0.022),
  ('Clc1ccc(-c2nnc(Nc3ccc(Oc4ncnc5ccccc45)cc3)c3ccccc23)cc1 [compound 562]', 'µM', 0.107),
  ('COCCOCCOc1ccc2nccc(Sc3ccc(Nc4nnc(-c5ccc(Cl)cc5)c5ccccc45)cc3)c2n1 [compound 475]', 'µM', 0.035),
  ('Cn1cncc1-c1cc2nccc(Oc3ccc(Nc4nnc(-c5ccc(Cl)cc5)c5ccccc45)cc3)c2s1 [compound 249]', 'µM', 0.004);
